- Test system: Sprague Dawley rats
- condition: rat, intraperitoneal, dose 20 mg/kg, 72 hours; 1 = not remarkable, 2 and higher increasing severity
Score (histopathology liver necrosis severity score) for assorted compounds
# output: bare number, no unit

Some entries whose results are on file:
{"compound": "NNc1ccccc1 [phenylhydrazine]", "observed.result": 1}
{"compound": "CN(N=O)C(=O)N[C@H]1C(O)O[C@H](CO)[C@@H](O)[C@@H]1O (mixture of isomers)", "observed.result": 1}
{"compound": "C[C@@H]1[C@H](O)[C@@H](C)/C=C/C=C/C=C/C=C/C=C/C=C/C=C/[C@H](O[C@@H]2O[C@H](C)[C@@H](O)[C@H](N)[C@@H]2O)C[C@@H]2O[C@](O)(C[C@@H](O)C[C@@H](O)[C@H](O)CC[C@@H](O)C[C@@H](O)CC(=O)O[C@H]1C)C[C@H](O)[C@H]2C(=O)O", "observed.result": 1}
{"compound": "CCC1(c2ccccc2)C(=O)NC(=O)NC1=O", "observed.result": 1}

Then this compound:
According to the records, this compound `CN(C)N=O` displays Score (histopathology liver necrosis severity score) of 9

---

- Test system: Sprague Dawley rats
- condition: rat, in vivo, ip, 200 mg/kg
parameter: Liver Necrosis

{"molecule": "CC/C(=C(\\c1ccccc1)c1ccc(OCCN(C)C)cc1)c1ccccc1 [tamoxifen]", "target.or.test.system": "Sprague Dawley rats", "observed.result": "no"}
{"molecule": "Cn1cnc([N+](=O)[O-])c1Sc1ncnc2nc[nH]c12 [azathioprine]", "target.or.test.system": "Sprague Dawley rats", "observed.result": "No"}
{"molecule": "NNC(=O)c1ccncc1 [isoniazid]", "target.or.test.system": "Sprague Dawley rats", "observed.result": "no"}
{"molecule": "Nc1nc(O)c2ncn(COC(CO)CO)c2n1 [gancyclovir]", "target.or.test.system": "Sprague Dawley rats", "observed.result": "no"}

---

- System: Sprague Dawley rats
- condition: rat, in vivo, ip, 50 mg/kg
parameter: Liver Necrosis

Some entries whose results are on file:
{"query.smiles": "CC/C(=C(\\c1ccccc1)c1ccc(OCCN(C)C)cc1)c1ccccc1", "Liver Necrosis": "no"}
{"query.smiles": "CN(C)[C@@H]1C(O)=C(C(N)=O)C(=O)[C@@]2(O)C(O)=C3C(=O)c4c(O)cccc4[C@@](C)(O)[C@H]3C[C@@H]12", "Liver Necrosis": "no"}
{"query.smiles": "NNC(=O)c1ccncc1", "Liver Necrosis": "no"}
{"query.smiles": "O=c1[nH]cc(F)c(=O)[nH]1", "Liver Necrosis": "no"}
{"query.smiles": "Nc1nc(O)c2ncn(COC(CO)CO)c2n1", "Liver Necrosis": "no"}

Then this compound:
Log: Sprague Dawley rats, compound `Cn1cnc([N+](=O)[O-])c1Sc1ncnc2nc[nH]c12` , Liver Necrosis = No

---

- Test system: Sprague Dawley rats
- condition: rat, intraperitoneal, dose 20 mg/kg, 72 hours after treatment
parameter: Liver Necrosis

Some entries whose results are on file:
{"compound": "CCC1(c2ccccc2)C(=O)NC(=O)NC1=O", "Liver Necrosis": "no"}
{"compound": "NNc1ccccc1 [phenylhydrazine]", "Liver Necrosis": "no"}
{"compound": "CN(C)N=O", "Liver Necrosis": "Yes"}
{"compound": "C[C@@H]1[C@H](O)[C@@H](C)/C=C/C=C/C=C/C=C/C=C/C=C/C=C/[C@H](O[C@@H]2O[C@H](C)[C@@H](O)[C@H](N)[C@@H]2O)C[C@@H]2O[C@](O)(C[C@@H](O)C[C@@H](O)[C@H](O)CC[C@@H](O)C[C@@H](O)CC(=O)O[C@H]1C)C[C@H](O)[C@H]2C(=O)O", "Liver Necrosis": "No"}

According to the records, this compound CN(N=O)C(=O)N[C@H]1C(O)O[C@H](CO)[C@@H](O)[C@@H]1O (mixture of isomers) displays Liver Necrosis of no
